# assay.system: ScMyo3
# assay.info: SPOT peptide array binding signal intensity (averaged, normalized) (arbitrary units (background-subtracted, floor 0; scale differs between SH3 domains)); higher = stronger binding of the SH3 domain to the peptide
readout.name: SPOT peptide array binding signal intensity

1. RKNRAPPQRPRFNRE    8.5
2. RSRRSSFAYPQQVAI    3.5
